Can you tell me normalized growth for the items I'm about to list?
- TEST_NAME: chemical genetic growth profiling, strain panel (AID 1159580);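 also: tested at 20 µM; growth read once vehicle control cultures reached saturation at 30 °C; 1 = growth at the plate median or of vehicle wells; lower values mean less growth of the strain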
- RECORDED_CONDITIONS: S. cerevisiae deletion strains, growth OD, locus YDL035C, strain GPR1, hits give low values
About 2,000 (36%) of roughly 5,500 compounds were called active. About 18% were inconclusive and are not listed. The list shows a part of the results.
In your answer, state the number alone without any accompanying words.

Problem: Look up normalized growth for this molecule: O=C1C=CC2=C3c4cc(O)c(O)cc4C[C@@]3(O)COC2=C1
Result: 1.03

Problem: Look up normalized growth for this molecule: O=C(OC1Cc2c(O)cc(O)cc2OC1c1cc(O)c(O)c(O)c1-c1c(C2Oc3cc(O)cc(O)c3CC2OC(=O)c2cc(O)c(O)c(O)c2)cc(O)c(O)c1O)c1cc(O)c(O)c(O)c1 (stereo not drawn)
Result: 1.04

Problem: Look up normalized growth for this molecule: Nc1ncnc2c1ncn2[C@@H]1O[C@H](CO)[C@@H](O)[C@H]1O
Result: 0.987

Problem: Look up normalized growth for this molecule: Nc1ccc(S(=O)(=O)Nc2ccc(Cl)nn2)cc1
Result: 1.02

Problem: Look up normalized growth for this molecule: COc1cc2c(c(OC)c1OC)-c1ccc(O)c(=O)cc1[C@@H](NC(C)=O)CC2
Result: 0.543

Problem: Look up normalized growth for this molecule: O=c1[nH]c(=O)n(C2C[C@@H](O)[C@@H](CO)O2)cc1F (stereo partly drawn)
Result: 0.99

Problem: Look up normalized growth for this molecule: COc1ccccc1OCCNCC(O)COc1cccc2[nH]c3ccccc3c12 (stereo not drawn)
Result: 0.98

Problem: Look up normalized growth for this molecule: C[C@H]1[C@H]2CCC3C4CC=C5C[C@@H](N(C)C)CC[C@]5(C)C4CC[C@@]32CN1C (stereo partly drawn)
Result: 0.949

Problem: Look up normalized growth for this molecule: CC(Cc1ccc(O)c(O)c1)C(C)Cc1ccc(O)c(O)c1 (stereo not drawn)
Result: 0.774

Problem: Look up normalized growth for this molecule: NC[C@H](O)c1ccc(O)c(O)c1
Result: 1.01

Problem: Look up normalized growth for this molecule: CC(=O)c1c(O)c(C)c(O)c2c1OC1=CC(=O)C(C(C)=O)C(=O)C12C (stereo not drawn)
Result: 1.01

Problem: Look up normalized growth for this molecule: CC(=O)O[C@@H]1CC2C(C)(C)C(=O)CC[C@]2(C)C2CC[C@]3(C)C(=CC(=O)O[C@H]3c3ccoc3)[C@@]21C (stereo partly drawn)
Result: 0.964

Problem: Look up normalized growth for this molecule: O=C(O)CCCCC1CCSS1 (stereo not drawn)
Result: 0.98

Problem: Look up normalized growth for this molecule: C[C@H](N)[C@H](O)c1ccc(O)c(O)c1
Result: 1

Problem: Look up normalized growth for this molecule: CCC(Cc1c(I)cc(I)c(N)c1I)C(=O)O (stereo not drawn)
Result: 1

Problem: Look up normalized growth for this molecule: Nc1ncnc2c1ncn2C1C[C@H](O)[C@@H](CO)O1 (stereo partly drawn)
Result: 0.99

Problem: Look up normalized growth for this molecule: C=CC(C1=CC(=O)C=CC1=O)c1ccccc1 (stereo not drawn)
Result: 0.937

Problem: Look up normalized growth for this molecule: N[C@@H](Cc1ccc(O)c(O)c1)C(=O)O
Result: 0.976

Problem: Look up normalized growth for this molecule: O=C(O)/C=C/C=C/c1ccccc1
Result: 0.964

Problem: Look up normalized growth for this molecule: Nc1ncn([C@@H]2O[C@H](CO)[C@@H](O)[C@H]2O)c(=O)n1
Result: 1.02

Problem: Look up normalized growth for this molecule: CN1C(CC(=O)c2ccccc2)CCCC1CC(O)c1ccccc1 (stereo not drawn)
Result: 1.01

Problem: Look up normalized growth for this molecule: C/C=C/c1ccc2c(c1)OCO2
Result: 1.02

Problem: Look up normalized growth for this molecule: CSCCC(NC=O)C(=O)NC(C)C(=O)O (stereo not drawn)
Result: 1.01
